From: PubChem BioAssay

- assayed_target: Focal adhesion kinase 1 (Homo sapiens) (UniProt Q05397)
- Sequence (Q05397 whole entry, looked up): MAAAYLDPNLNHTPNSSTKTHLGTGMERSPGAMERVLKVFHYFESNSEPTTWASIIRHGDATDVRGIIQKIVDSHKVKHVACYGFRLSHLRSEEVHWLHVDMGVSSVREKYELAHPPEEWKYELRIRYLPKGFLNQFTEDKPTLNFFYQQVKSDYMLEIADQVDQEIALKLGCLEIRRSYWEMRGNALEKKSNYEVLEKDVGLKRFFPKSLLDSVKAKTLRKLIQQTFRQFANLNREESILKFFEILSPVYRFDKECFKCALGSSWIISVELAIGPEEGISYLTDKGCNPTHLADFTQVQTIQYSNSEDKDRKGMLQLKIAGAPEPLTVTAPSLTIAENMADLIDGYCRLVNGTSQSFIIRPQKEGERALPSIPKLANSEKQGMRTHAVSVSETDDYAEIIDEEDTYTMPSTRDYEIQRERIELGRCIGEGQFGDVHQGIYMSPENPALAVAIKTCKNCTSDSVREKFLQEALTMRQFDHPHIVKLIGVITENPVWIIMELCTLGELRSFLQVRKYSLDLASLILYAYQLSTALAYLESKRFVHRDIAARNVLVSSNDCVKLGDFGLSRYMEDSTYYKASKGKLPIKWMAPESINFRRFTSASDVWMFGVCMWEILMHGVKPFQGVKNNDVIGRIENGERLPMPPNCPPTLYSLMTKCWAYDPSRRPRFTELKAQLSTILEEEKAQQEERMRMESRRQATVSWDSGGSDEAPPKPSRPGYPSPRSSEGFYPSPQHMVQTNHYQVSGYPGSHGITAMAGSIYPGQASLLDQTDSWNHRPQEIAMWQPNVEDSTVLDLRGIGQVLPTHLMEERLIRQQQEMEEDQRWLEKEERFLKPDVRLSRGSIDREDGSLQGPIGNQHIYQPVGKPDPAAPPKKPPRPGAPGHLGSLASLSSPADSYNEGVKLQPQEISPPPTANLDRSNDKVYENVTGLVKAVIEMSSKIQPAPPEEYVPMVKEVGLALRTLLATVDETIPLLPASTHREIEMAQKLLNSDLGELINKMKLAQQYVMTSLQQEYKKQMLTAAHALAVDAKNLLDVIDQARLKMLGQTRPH
- protocol_details: small-molecule microarray binders of FAK, primary screen, biochemical, 635/667 nm fluorescence, BSA, DTT (AID 1130);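 also: composite of spot emission at 667 nm and signal to noise over triplicate slides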
- condition_info: PTK2 binding, 635 nm fluorescence, higher = more signal
Kindly state composite z-score for each of the entries shown.
Give bare numbers.

In the examples that follow, each entry is paired with its recorded composite z-score.
CC(C)N1C(=O)c2ccccc2[C@](C)(C(=O)NCCN2CCOCC2)[C@@H]1c1ccc(CO)cc1 0.356
C=C(CCCC)/C(=C/C[C@H](OC(=O)c1ccncc1)c1ccccc1OCCO)c1cnc2ccccc2c1 0.166

Record composite z-score per entry; entries follow.
1. COC(=O)[C@@]1(Cc2ccc(OC)cc2)[C@H]2c3cc(C(=O)N4CCCC4)n(Cc4ccc(C)c(F)c4F)c3C[C@H]2CN1C(=O)c1ccccc1
2. CCCC=C(CCC)[C@@H](NC(=O)c1cccs1)c1ccc(C(F)(F)F)cc1

1: 1.32; 2: -0.201
